Field: Ki. System: Bcl-2-like protein 1 (Homo sapiens). Provenance: assorted publications.
Sequence (Q07817 whole entry): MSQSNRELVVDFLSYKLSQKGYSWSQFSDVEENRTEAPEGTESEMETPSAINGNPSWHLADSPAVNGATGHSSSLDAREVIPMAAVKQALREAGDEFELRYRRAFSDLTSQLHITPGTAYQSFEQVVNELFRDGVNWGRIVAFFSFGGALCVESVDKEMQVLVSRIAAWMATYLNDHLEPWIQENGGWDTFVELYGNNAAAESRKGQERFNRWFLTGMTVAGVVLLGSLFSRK
Threshold 2000 nM: Ki strictly smaller gives yes, otherwise no.

[[record]]
molecule = "Cc1cc(Oc2ccc(Cn3nc4ccc(Cl)cc4c3C(=O)NS(=O)(=O)c3ccc(NCc4cccnc4)c([N+](=O)[O-])c3)cc2)cc(C)c1Cl"
category = "no"

[[record]]
molecule = "COC1(CC(C)(C)C)CCN(c2ccc(C(=O)NS(=O)(=O)c3ccc(N[C@H](CCN(C)C)CSc4ccccc4)c([N+](=O)[O-])c3)cc2)CC1"
category = "yes"

[[record]]
molecule = "CN(C)CC[C@H](CSc1ccccc1)Nc1ccc(S(=O)(=O)NC(=O)c2ccc(N3CCN(Cc4ccccc4-c4ccc(C(F)(F)F)cc4)CC3)cc2)cc1[N+](=O)[O-]"
category = "yes"

[[record]]
molecule = "O=C(NS(=O)(=O)c1ccc(NCCSc2ccccc2)c([N+](=O)[O-])c1)c1ccc(NS(=O)(=O)c2ccccc2)cc1"
category = "no"

[[record]]
molecule = "CC(=O)N[C@@H](CC(C)C)C(=O)Nc1ccc(C(=O)NS(=O)(=O)c2ccc(NCCSc3ccccc3)c([N+](=O)[O-])c2)cc1"
category = "no"


In: Item CCc1sc2ncnc(N[C@H](Cc3ccccc3)C(=O)O)c2c1-c1cccc2[nH]ccc12 (stereo in doubt; 8a) : Ki beneath 2000 nM, strictly?
Out: no

In: Hi there! Is Ki for c1ccc(Cc2cnc(N3CCN(Cc4ccccc4-c4cn[nH]c4)CC3)nc2)cc1 below 2000 nM, do you know?
Out: yes

In: Confirm or reject: Ki of CN(C)CC[C@H](CSc1ccccc1)Nc1ccc(S(=O)(=O)NC(=O)c2ccc(N3CCC(=Cc4ccc(C(F)(F)F)cc4)CC3)cc2)cc1[N+](=O)[O-] lies strictly below 2000 nM
Out: yes

In: Does the reported Ki of the following molecule sit strictly below 2000 nM? Cc1c(C(=O)O)c(-c2cccc(N3CCN(c4ccc(NS(=O)(=O)c5ccc(N[C@H](CCN(C)C)CSc6ccccc6)c([N+](=O)[O-])c5)cc4)CC3)c2)c(-c2ccc(Cl)cc2)n1C
Out: yes

In: Lab note: Ki threshold 2000 nM. Does this molecule come in strictly under it? CNC(=O)c1c(-c2cccc(N3CCN(c4ccc(NS(=O)(=O)c5ccc(N[C@H](CCN(C)C)CSc6ccccc6)c([N+](=O)[O-])c5)cc4)CC3)c2)c(-c2ccc(Cl)cc2)n(C)c1C
Out: yes

In: Is Ki strictly under 2000 nM for the entry Cc1c(C(=O)O)c(-c2cccc(N3CCN(c4ccc(NS(=O)(=O)c5ccc(N[C@H](CCN(C)C)CSc6ccccc6)c([N+](=O)[O-])c5)cc4)CC3)c2)c(-c2ccc(Cl)cc2)n1C1CC1 ?
Out: yes

In: Please let me know if O=C(/C=C/c1cccc(C(F)(F)F)c1)Nc1ccc(C(=O)NS(=O)(=O)c2ccc(NCCSc3ccccc3)c([N+](=O)[O-])c2)cc1 shows Ki below 2000 nM.
Out: yes

In: Determine if COc1ccc(/C=C/C(=O)Nc2ccc(C(=O)NS(=O)(=O)c3ccc(NCCSc4ccccc4)c([N+](=O)[O-])c3)cc2)cc1 shows Ki strictly lower than 2000 nM.
Out: yes
